molecular target: Tumor necrosis factor receptor superfamily member 10B (Homo sapiens); assay: TRAIL sensitizers in caspase-8 expressing neuroblastoma cells, dose response, NB7 cells plus caspase-8, luminescence, panel (AID 652002); conditions: NB7 neuroblastoma +caspase-8, TRAIL sensitization, luminescence viability, NB7+Caspase-8, with TRAIL, run 1; at 12.5 µM (top of the series)
Property: activity, % sensitization; scope: individual compounds
Report as a plain number; the unit % is understood.

// worked examples, activity, % sensitization included
Chemical string	Tested on	Unit abbrev	Endpoint value
CC(C)CCn1c(=O)c(C(=O)Nc2ccccc2S(N)(=O)=O)c(O)c2ccccc21	Tumor necrosis factor receptor superfamily member 10B (Homo sapiens)	%	-2.11
CCOC(=O)[C@]12Cc3cc4ccccc4cc3[C@H]1N(Cc1ccccc1)C(=O)c1ccccc12	Tumor necrosis factor receptor superfamily member 10B (Homo sapiens)	%	18.4
CCOC(=O)[C@]12Cc3cc4ccccc4cc3[C@H]1N(Cc1ccccc1)C(=O)c1cc(OC)ccc12	Tumor necrosis factor receptor superfamily member 10B (Homo sapiens)	%	23.8

Would you mind telling me what activity, % sensitization value was observed for CCOC(=O)c1cccc(-[n+]2c(-c3ccccc3)cc(-c3ccccc3)cc2-c2ccccc2)c1 ?
6.7

----------
target: Tumor necrosis factor receptor superfamily member 10B (Homo sapiens); experiment: caspase-8 TRAIL sensitization, hit retest, confirmation, cell-based, NB7+caspase-8, with/without TRAIL, luminescence panel (AID 651596); settings: NB7 neuroblastoma + caspase-8, TRAIL sensitization, luminescence viability, with TRAIL, mean of runs, at 10 µM, stronger effect = higher value
Metric: activity (%)
Report as a plain number; the unit % is understood.

Any idea what activity came out for NC(=O)c1cn(C2OC(CO)C(O)C2O)c2ncnc(N)c12 (stereo unspecified) on Tumor necrosis factor receptor superfamily member 10B (Homo sapiens)?
56.3

Any idea what activity came out for COc1ccc(CC2NCC(O)C2OC(C)=O)cc1 (stereo unspecified) on Tumor necrosis factor receptor superfamily member 10B (Homo sapiens)?
90.1

----------
tested on: Rat fibroblasts (CREF); assay: Peg3 promoter luciferase inhibitors, potency, dose response, cell-based, HeLa, CREF/GAPDH counter-screen panel (AID 624167); settings: CREF/GAPDH counter-screens; run 2, dose range 1, at 100 µM (top of the series)
Metric: inhibition (%)
Report as a plain number; the unit % is understood.

Compound	Tested on	Endpoint value
CC(=O)OC1CC[C@]2(C#N)[C@H]3CC[C@]4(C)[C@H](C5C=CC(=O)O5)CCC4(O)C3CCC2(O)C1 (some centres not stated)	Rat fibroblasts (CREF)	7.93
CCOC(=O)c1c(-n2c(C)cc(C=C3C(=O)NC(=S)NC3=O)c2C)sc2c1CCCC2	Rat fibroblasts (CREF)	97.3
CCN(CCCl)c1cc(CN(C)C)cc(NC(=O)c2ccc(C(=O)Nc3cc(CN(C)C)cc(N(CC)CCCl)c3)cc2)c1	Rat fibroblasts (CREF)	97.7
CC1=CC2/C=C(\C)CCC(O)C(O)/C=C/C(=O)C23C(=O)NC(CC(C)C)C3C1C (configuration not stated)	Rat fibroblasts (CREF)	100
COc1cc2nc(CN3CC=C(c4ccccc4)CC3)[nH]c(=O)c2cc1OC	Rat fibroblasts (CREF)	26.4

Would you mind telling me what inhibition value was observed for CCC(c1nnnn1-c1ccc2c(c1)OCCO2)N1CCC(n2c(=O)[nH]c3ccccc32)CC1 (configuration not stated) ?
63.2

Would you mind telling me what inhibition value was observed for CC(=O)OC1(C)CC(C)C(=O)C(C(O)CC2CC(=O)NC(=O)C2)C1 (configuration not stated) ?
56.4
